# study.system: Cathepsin K (Homo sapiens, UniProt P43235)
# Sequence (P43235 whole entry): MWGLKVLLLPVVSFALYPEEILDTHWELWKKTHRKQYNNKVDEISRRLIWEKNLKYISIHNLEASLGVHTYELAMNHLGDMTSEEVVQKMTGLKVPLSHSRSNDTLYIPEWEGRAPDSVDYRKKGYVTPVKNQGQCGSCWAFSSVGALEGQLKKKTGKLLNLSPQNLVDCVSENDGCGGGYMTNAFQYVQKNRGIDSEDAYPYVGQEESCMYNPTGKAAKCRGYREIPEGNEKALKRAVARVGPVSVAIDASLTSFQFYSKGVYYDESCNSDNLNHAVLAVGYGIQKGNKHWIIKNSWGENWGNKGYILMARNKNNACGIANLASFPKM
Reported pKi values for the following compounds.
Note on units: pKi is unitless, being -log10 of a concentration expressed in mol/L.

# example entries with known answers
CC(C)C[C@H](NC(=O)c1cc2ccccc2s1)C(=O)NC1COCC1=O (stereo partly specified): 7.96
CC(C)C[C@H](NC(=O)c1ccc(F)c(F)c1)C(=O)NC1COCC1=O (stereo partly specified): 6.09
CC(C)C[C@H](NC(=O)c1ccc(S(C)(=O)=O)cc1)C(=O)NC1COCC1=O (stereo partly specified): 6.15

In: Give the observed pKi of CC(C)C[C@H](NC(=O)c1ccc(C(C)C)cc1)C(=O)NC1COCC1=O (stereo partly specified) for Cathepsin K (Homo sapiens, UniProt P43235).
Out: 7.19

In: Give the observed pKi of CC(C)C[C@H](NC(=O)c1ccc(-c2ccccc2)cc1)C(=O)NC1COCC1=O (stereo partly specified) for Cathepsin K (Homo sapiens, UniProt P43235).
Out: 7.72
